Where these numbers come from: ChEMBL document CHEMBL1130412

Assay: Dissociation constant (pKa)
Type: physicochemical
Measurement kind: pKa

Worked examples follow.
> print(dat)
                         molecule.smiles  result
1   Cc1c(C(F)(F)F)nc2c(OCc3ccccc3)cccn12       2
2  OCc1c(C(F)(F)F)nc2c(OCc3ccccc3)cccn12       2
3           Cc1nc2c(OCc3ccccc3)cccn2c1CO     6.1

[1] Cc1nc2c(CCc3ccccc3)cccn2c1C
[2] Cc1nc2c(OCc3ccccc3)nccn2c1C
input: 1 or 2 : whose pKa is greater? Lab log: write the label of the selected item as the result.
output: 1
(1: 7.5, 2: 4.8)

* * *

Biological target: Potassium-transporting ATPase (Sus scrofa)
Sequence (P18434 whole entry): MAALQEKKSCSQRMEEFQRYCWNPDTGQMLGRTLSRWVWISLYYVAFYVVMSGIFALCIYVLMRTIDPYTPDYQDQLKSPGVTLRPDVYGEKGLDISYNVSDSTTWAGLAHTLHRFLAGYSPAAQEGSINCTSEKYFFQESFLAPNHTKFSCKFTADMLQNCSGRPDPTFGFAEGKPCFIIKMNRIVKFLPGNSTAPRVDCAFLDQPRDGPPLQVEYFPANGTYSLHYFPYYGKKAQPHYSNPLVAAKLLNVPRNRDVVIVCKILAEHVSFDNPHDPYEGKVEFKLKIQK
Sequence (P19156 whole entry): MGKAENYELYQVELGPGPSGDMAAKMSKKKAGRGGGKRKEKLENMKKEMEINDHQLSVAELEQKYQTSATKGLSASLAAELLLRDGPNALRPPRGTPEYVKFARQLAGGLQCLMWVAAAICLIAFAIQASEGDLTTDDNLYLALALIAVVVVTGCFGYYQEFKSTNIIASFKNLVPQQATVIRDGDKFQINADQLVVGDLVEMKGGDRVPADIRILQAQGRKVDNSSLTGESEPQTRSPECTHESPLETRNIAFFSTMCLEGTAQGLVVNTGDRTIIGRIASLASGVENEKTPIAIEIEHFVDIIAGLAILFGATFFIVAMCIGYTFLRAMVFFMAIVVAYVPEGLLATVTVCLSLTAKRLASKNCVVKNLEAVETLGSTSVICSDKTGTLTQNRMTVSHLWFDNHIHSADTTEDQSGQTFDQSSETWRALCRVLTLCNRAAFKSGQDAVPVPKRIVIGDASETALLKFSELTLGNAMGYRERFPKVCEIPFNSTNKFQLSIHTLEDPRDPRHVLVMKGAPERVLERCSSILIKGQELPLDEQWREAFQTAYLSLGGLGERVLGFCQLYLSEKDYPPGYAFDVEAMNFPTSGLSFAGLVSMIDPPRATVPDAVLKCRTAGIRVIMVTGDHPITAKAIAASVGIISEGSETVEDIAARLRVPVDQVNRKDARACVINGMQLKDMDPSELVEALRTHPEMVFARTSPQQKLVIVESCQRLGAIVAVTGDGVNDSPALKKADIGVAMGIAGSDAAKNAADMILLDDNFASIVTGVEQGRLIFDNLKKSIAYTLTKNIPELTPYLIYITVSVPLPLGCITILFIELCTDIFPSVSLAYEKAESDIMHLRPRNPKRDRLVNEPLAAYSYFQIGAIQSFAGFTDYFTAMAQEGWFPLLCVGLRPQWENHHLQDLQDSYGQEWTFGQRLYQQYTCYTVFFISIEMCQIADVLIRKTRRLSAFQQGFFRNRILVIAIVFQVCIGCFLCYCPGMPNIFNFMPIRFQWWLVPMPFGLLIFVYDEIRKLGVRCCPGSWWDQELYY
Measurement kind: IC50 (µM)

Worked examples follow.
> print(dat)
                  molecule.smiles                               test.system  uom  result
1  Cc1nc2c(/C=C\c3ccccc3)cccn2c1C  Potassium-transporting ATPase (Sus scrofa)   µM    28.4
2    Cc1nc2c(OCc3ccccc3)cccn2c1CO  Potassium-transporting ATPase (Sus scrofa)   µM     2.2

[I] Cc1nc2c(/C=C/c3ccccc3)cccn2c1C
[II] Cc1ccn2c(CC#N)c(C)nc2c1OCc1ccccc1
input: Would you mind telling me which has the lower recorded IC50 between I and II ? Lab log: write the label of the selected item as the result.
output: I
(I: 1.68 µM, II: 13.7 µM)

* * *

Biological target: Potassium-transporting ATPase (Oryctolagus cuniculus)
Test: Inhibition of H+/K+ ATPase as reduced acid formation in rabbit gastric glands
Conditions: read-out: IC50
Measurement kind: IC50 (nM)

Worked examples follow.
> print(dat)
                                   molecule  result
1  Cc1nc2c3c(ccn2c1CC#N)CCC(c1ccccc1)O3 (stereo unspecified)      64
2               Cc1nc2c(OCc3ccccc3)nccn2c1N    8080
3              Cc1nc2c(OCc3ccccc3)cccn2c1CO     530
4         Cc1ccn2c(CC#N)c(C)nc2c1OCc1ccccc1     400
5           Cc1nc2c(/C=C/Cc3ccccc3)cccn2c1N   14100
6            Cc1nc2c(/C=C\c3ccccc3)cccn2c1C   17500
7            Cc1nc2c(CCc3ccccc3)cccn2c1CC#N     130
8               Cc1nc2c(CCc3ccccc3)cccn2c1N    1460

[A] Cc1nc2c(OCc3ccccc3)cccn2c1N
[B] Cc1nc2c(/C=C/c3ccccc3)cccn2c1C
[C] Cc1nc2c(/C=C/Cc3ccccc3)cccn2c1CC#N
input: // ascending sort on recorded IC50 Order the labels as requested and give them as your answer.
output: A, B, C
(A: 310 nM, B: 990 nM, C: 3800 nM)

* * *

Assay: Dissociation constant (pKa)
Type: physicochemical
Measurement kind: pKa

> print(dat)
               molecule.smiles  measurement.kind  result
1  Cc1nc2c(CCc3ccccc3)nccn2c1N               pKa     5.1

[1] Cc1nc2c(OCc3ccccc3)cccn2c1C
[2] N#CCc1c(C(F)(F)F)nc2c(OCc3ccccc3)cccn12
input: Would you mind telling me which has the lower recorded pKa between 1 and 2 ? Lab log: write the label of the selected item as the result.
output: 2
